Values compiled from patent US20250214991A1.

inhibition at 1 µM listing for selected molecules.
Test Target: IKZF2 (Homo sapiens (Human), UniProt Q96SW2+Q9UKS7)
Sequence (Q9UKS7 whole entry): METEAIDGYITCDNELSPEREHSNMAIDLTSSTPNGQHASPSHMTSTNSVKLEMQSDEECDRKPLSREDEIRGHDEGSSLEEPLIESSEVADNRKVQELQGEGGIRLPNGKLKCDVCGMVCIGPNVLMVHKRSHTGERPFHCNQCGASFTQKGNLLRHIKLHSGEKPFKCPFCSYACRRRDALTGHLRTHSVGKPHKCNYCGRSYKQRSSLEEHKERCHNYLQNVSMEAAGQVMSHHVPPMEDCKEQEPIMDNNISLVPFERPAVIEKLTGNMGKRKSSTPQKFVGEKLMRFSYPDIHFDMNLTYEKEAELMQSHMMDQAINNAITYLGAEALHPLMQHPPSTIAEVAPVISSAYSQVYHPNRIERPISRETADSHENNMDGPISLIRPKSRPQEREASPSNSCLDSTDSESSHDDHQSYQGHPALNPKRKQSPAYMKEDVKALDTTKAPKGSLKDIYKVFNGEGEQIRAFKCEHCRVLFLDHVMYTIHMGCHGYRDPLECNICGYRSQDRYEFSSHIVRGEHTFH
Sequence (Q96SW2 whole entry): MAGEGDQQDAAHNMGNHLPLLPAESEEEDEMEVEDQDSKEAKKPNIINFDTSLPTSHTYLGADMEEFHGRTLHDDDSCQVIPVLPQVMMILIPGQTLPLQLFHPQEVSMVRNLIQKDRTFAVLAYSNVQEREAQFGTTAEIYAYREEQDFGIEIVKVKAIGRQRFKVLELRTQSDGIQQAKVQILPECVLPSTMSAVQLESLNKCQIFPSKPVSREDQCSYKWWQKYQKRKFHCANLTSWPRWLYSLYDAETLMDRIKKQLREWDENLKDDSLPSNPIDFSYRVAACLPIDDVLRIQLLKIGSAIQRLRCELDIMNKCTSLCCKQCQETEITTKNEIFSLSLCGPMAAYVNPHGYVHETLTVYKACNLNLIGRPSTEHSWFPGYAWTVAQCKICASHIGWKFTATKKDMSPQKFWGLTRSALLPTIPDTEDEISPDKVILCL
Sequence (Q16531 2-1140 partner): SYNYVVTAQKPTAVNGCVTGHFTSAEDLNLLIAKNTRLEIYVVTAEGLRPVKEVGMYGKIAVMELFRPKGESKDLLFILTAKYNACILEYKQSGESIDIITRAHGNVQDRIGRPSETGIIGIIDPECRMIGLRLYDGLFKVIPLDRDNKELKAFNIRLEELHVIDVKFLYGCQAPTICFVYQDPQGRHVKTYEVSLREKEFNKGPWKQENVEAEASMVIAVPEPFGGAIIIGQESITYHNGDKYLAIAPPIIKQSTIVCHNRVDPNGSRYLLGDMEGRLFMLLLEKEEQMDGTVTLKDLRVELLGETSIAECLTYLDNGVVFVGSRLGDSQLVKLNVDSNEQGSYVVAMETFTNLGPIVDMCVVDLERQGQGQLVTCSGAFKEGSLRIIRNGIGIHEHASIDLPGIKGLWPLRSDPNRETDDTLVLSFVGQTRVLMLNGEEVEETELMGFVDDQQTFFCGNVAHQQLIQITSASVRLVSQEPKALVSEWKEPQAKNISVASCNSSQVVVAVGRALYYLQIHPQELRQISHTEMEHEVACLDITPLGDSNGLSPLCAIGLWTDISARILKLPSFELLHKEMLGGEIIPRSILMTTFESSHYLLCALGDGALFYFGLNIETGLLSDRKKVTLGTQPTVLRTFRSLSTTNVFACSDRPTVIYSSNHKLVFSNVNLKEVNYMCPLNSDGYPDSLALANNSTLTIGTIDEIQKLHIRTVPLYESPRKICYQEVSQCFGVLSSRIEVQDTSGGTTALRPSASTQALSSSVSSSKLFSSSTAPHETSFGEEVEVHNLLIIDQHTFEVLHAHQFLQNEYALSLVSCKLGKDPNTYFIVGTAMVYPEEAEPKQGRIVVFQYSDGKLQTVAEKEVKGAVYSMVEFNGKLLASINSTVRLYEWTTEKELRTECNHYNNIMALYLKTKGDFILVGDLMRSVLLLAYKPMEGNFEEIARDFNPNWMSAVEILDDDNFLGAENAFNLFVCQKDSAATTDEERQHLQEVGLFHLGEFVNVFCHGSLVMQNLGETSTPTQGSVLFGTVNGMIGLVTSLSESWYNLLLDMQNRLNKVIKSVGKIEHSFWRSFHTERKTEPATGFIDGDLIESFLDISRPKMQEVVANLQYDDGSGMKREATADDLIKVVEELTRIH
Protocol Text: In vitro IKZF2 Western Blot Assay in Jurkat cells
Format: cell-based
Experimental Parameters: 24 hrs, 1 μM, read-out: IKZF2 degradation (%) @ μM 1
Property Name: inhibition at 1 µM

{"columns": ["Molecule", "Readout Value"],
 "data": [
  ["O=C1CCC(N2Cc3cc(-c4cc(CN5CCCCC5)cn5ccnc45)ccc3C2=O)C(=O)N1 (centres unmarked) [Example 33]", "> 50%"],
  ["O=C1CCC(N2Cc3cc(-c4cc(CN5CCC5)cn5ccnc45)ccc3C2=O)C(=O)N1 (centres unmarked) [Example 34]", "> 50%"],
  ["O=C1CCC(N2Cc3cc(-c4cc(CNCCc5ccc(Cl)cc5Cl)cn5ccnc45)ccc3C2=O)C(=O)N1 (centres unmarked) [Example 40]", "< 30%"],
  ["O=C1CCC(N2Cc3cc(-c4cc(CN5CCC(c6ccccc6)CC5)cn5ccnc45)ccc3C2=O)C(=O)N1 (centres unmarked) [Example 47]", "< 30%"],
  ["O=C1CCC(N2Cc3cc(-c4cc(CNCc5ccccc5Cl)cn5ccnc45)ccc3C2=O)C(=O)N1 (centres unmarked) [Example 38]", "< 30%"],
  ["O=C1CCC(N2Cc3cc(-c4cc(CN5CCCC5c5ccccc5)cc5cncn45)ccc3C2=O)C(=O)N1 (centres unmarked) [Example 26]", "30 to 50%"],
  ["CC1(C)CCN(Cc2cc(-c3ccc4c(c3)CN(C3CCC(=O)NC3=O)C4=O)c3nccn3c2)CC1 (centres unmarked) [Example 36]", "< 30%"],
  ["O=C1CCC(N2Cc3cc(-c4cc(CN5CC(c6ccccc6)C5)cn5ccnc45)ccc3C2=O)C(=O)N1 (centres unmarked) [Example 48]", "< 30%"]
]}

* * *

Test Target: IKZF2 (Homo sapiens (Human), UniProt Q96SW2+Q9UKS7)
Protocol Text: In vitro IKZF2 HiBit Assay (HEK293T Flp-in-HiBiT cells)
Type: cell-based
Experimental Parameters: HEK293T Flp-in-HiBiT cells, 6 hrs incubation; read-out: IKZF2 HiBit DC50
Property Name: DC50

{"columns": ["Molecule", "Readout Value"],
 "data": [
  ["CC(=O)N1CC(n2ccc3c(CN4CCCC4)cc(-c4ccc5c(c4)CN(C4CCC(=O)NC4=O)C5=O)nc32)C1 (stereo not shown)", "10 to 100 nM"],
  ["Cn1ccc2c(CN3CCC4(CC3)COC4)cc(-c3ccc4c(c3)CN(C3CCC(=O)NC3=O)C4=O)nc21 (stereo not shown)", "1 to 10 nM"],
  ["Cc1nn(C2COC2)c2nc(-c3ccc4c(c3)CN(C3CCC(=O)NC3=O)C4=O)cc(CN3CCCC3)c12 (stereo not shown)", "1 to 10 nM"],
  ["O=C1CCC(N2Cc3cc(-c4cc(CN5CCCC5)c5cnn(C6COC6)c5n4)ccc3C2=O)C(=O)N1 (stereo not shown)", "1 to 10 nM"],
  ["Cn1ccc2c(CN3CC4CC4C3)cc(-c3ccc4c(c3)CN(C3CCC(=O)NC3=O)C4=O)nc21 (stereo not shown)", "< 1 nM"],
  ["Cn1ccc2c(CN3CCCCCC3)cc(-c3ccc4c(c3)CN(C3CCC(=O)NC3=O)C4=O)nc21 (stereo not shown)", "< 1 nM"],
  ["Cn1ncc2c(CN3CCCC3)cc(-c3ccc4c(c3)CN(C3CCC(=O)NC3=O)C4=O)nc21 (stereo not shown)", "< 1 nM"]
]}
